Below, each entry is listed alongside its reported IC50.
# measured.target: human SCD1 (Homo sapiens, UniProt O00767)
# Construct: expressed in transfected cells; host or cells: yeast strain with OLE1 deleted, plasmid-borne human SCD1 (selected in SD-Ura)
# Sequence (O00767 whole entry): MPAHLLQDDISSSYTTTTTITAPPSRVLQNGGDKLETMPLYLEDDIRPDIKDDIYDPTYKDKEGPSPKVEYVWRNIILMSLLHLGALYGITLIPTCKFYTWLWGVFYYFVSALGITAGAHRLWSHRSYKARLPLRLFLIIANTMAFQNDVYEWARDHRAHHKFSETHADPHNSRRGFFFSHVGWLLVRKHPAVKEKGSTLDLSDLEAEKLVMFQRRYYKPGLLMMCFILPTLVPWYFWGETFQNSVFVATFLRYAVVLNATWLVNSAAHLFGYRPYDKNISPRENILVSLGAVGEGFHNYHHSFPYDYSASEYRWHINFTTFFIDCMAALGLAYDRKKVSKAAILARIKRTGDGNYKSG
# assay: Growth inhibition of yeast strain expressing human SCD1 as sole desaturase (OLE1 deleted), OD600 readout
# Format: cell-based
# run.parameters: yeast strain expressing human SCD1 as sole desaturase; growth (OD600) after 40 h at 30° C.; read-out: SCD1 IC50

Record excerpt, results attached:
> print(dat)
                               smiles.entry  recorded.endpoint  value.observed
1  CN1N=C(C(=O)Nc2ccc(CC3=CCCCC3)cn2)CCC1=O               IC50         > 45 µM
2  O=C(Nc1ccc(Cc2ccc(F)c(F)c2)cn1)c1ncc(Br)cn1               IC50         > 45 µM

# IC50 of Cn1nc(C(=O)Nc2ccc(CCc3cccc(Cl)c3)cn2)ccc1=O = > 45 µM
